System: Plasmodium falciparum
method-summary: GSK_TCMDC: Inhibition of Plasmodium falciparum 3D7 in whole red blood cells, using parasite LDH activity as an index of growth. Test compounds present at 2uM
Type: functional
measured-property: Inhibition (%)
Answers are plain numbers, in %.

Please review the following examples before continuing.
State its Inhibition for this compound: CCN(CC)CCCOC(=O)c1ccc2c(c1)-c1ccc(C(=O)OCCCN(CC)CC)c3cccc-2c13.Cl
98

// fetch Inhibition given entry OCCN1CCN(C(=S)Nc2ccccc2)CC1
97

Consider the compound CCCCCc1cc(OC(C)=O)c2c(c1)OC(C)(C)C=C2C1=CCN(Cc2ccccc2)CC1.O=C(O)/C=C/C(=O)O . State its measured Inhibition.
97

State its Inhibition: Cc1cc(N[C@@H](Cc2ccccc2)C(=O)NCCOc2ccccc2)nc(NCc2ccccc2C)n1.O=C(O)C(F)(F)F
100

Kindly give each listed record's Inhibition.
1. N#Cc1ccc2c(c1)CN(C1CCC(NC(=O)C3=Cc4cc(Cl)ccc4OC3)CC1)CCC2 (stereo not drawn)
2. O=C(Nc1ccc(F)c(Cl)c1)NC1CCN(c2ccnc3cc(Cl)ccc23)C1.O=C(O)C(F)(F)F (stereo not drawn)
3. O=C(Cc1c[nH]cn1)Nc1cccc(-c2ccc(-c3nc4cc(F)ccc4[nH]3)cc2)c1

93
100
100

Take each entry in turn and give its Inhibition.
1. CCN(CC)CCN(Cc1ccc(-c2ccc(C(F)(F)F)cc2)cc1)C(=O)Cn1c(CCc2cc(F)cc(F)c2F)nc(=O)c2ccccc21.O=C(O)C(O)C(O)C(=O)O
2. O=C(Cn1c2ccccc2c(=O)c2ccc(Cl)cc21)Nc1ccc(C(F)(F)F)cc1
3. CCC(C)NCc1c(O)ccc2c(CNC(C)CC)c(O)ccc12.Cl (stereo not drawn)
4. O=C(Nc1cc(F)c(F)c(-c2cccnc2)c1)N1CCc2cc(Cl)c(Cl)cc21
5. O=C(O)c1cccnc1Sc1ccc(Cl)cc1
6. CN(C)c1ccc(C=C2SC(=N)N(c3nccs3)C2=O)cc1

[100, 99, 100, 94, 100, 97]

Here are 2 compounds. What values of Inhibition were reported for them?
1. CCN(CC)CCN(Cc1ccc(-c2ccc(C(F)(F)F)cc2)cc1)C(=O)CN1C(CCc2cccc(F)c2F)=NS(=O)(=O)c2ccccc21
2. CC(CCc1ccccc1)NCC(O)c1cccc(C(F)(F)F)c1.Cl (stereo not drawn)

1. 100
2. 99

Report Inhibition for each item below.
1. COc1ccc(-c2ccc(NC(=O)c3cccc(C#N)c3)cc2)cc1CN1CCC(O)CC1.O=C(O)C(F)(F)F
2. O=C(NCCCCCN1CCC(c2c[nH]c3ccccc23)CC1)Nc1ccc(I)cc1
3. FC(F)(F)c1ccc2[nH]c(-c3cccc(-c4ccc(CNCCN5CCNCC5)cc4)c3)nc2c1.O=C(O)C(F)(F)F

1. 100
2. 100
3. 96

FYI, the data here is from ChEMBL document CHEMBL1157539.
